Test system: HCT-116
experiment-notes: Cytotoxicity against human HCT116 cells assessed as reduction in cell viability incubated for 72 hrs by CCK8 assay
Type: functional, cell-based
settings: HCT-116, 72 h
pIC50: −log10 of the molar value.
pIC50 values for the compounds below.
recorded-endpoint: pIC50

COc1cc(OC)c(-c2cn3ccc(NC(=O)[C@@H](N)CCCCN)cc3n2)cc1Cl = 5.00
COc1cc(OC)c(-c2cn3ccc(-c4ccc(C(=O)NC5CCNC5)cc4)cc3n2)cc1Cl (stereo not drawn) = 5.43
COc1cc(OCCCN(C)C)c(-c2cn3ccc(N4CCN(C(C)=O)CC4)cc3n2)cc1Cl = 5.10
